molecular target: NDM-1 (Klebsiella pneumoniae); construct: made in house; experiment: fluorogenic cephalosporin FC5 MBL inhibition assay, NDM-1; type: biochemical; settings: FC5 5 μM, enzyme 20 pM, quadruplicate; read-out: pIC50 NDM-1 (converted)
Sequence (C7C422 29-270, looked up, species assumed): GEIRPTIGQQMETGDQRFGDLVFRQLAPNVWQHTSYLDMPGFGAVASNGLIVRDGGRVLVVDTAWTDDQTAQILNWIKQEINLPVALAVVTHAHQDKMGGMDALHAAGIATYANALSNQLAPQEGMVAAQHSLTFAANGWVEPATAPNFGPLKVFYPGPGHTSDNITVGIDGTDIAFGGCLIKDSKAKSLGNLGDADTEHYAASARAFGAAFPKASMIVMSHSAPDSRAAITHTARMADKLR
READOUT: IC50 (µM)

NC(=O)c1ccc(-c2ccn(S(N)(=O)=O)c2C(=O)O)cc1: 0.0126

I. NS(=O)(=O)n1ccc(-c2ccc(N3CCOCC3)cc2)c1C(=O)O
II. Nc1ncc(-c2ccn(S(N)(=O)=O)c2C(=O)O)cn1
III. N=C1NCC(c2ccn(S(N)(=O)=O)c2C(=O)O)CN1 (stereo not shown)
Falling order of IC50, please. Please list the labels in the order you were asked to rank them.
III, II, I

----------
biological target: VIM-1 (Pseudomonas aeruginosa, UniProt A0A0F7KYQ8); construct: made in house; assay: fluorogenic cephalosporin FC5 MBL inhibition assay, VIM-1; assay type: biochemical; settings: FC5 5 μM, enzyme 100 pM, quadruplicate; read-out: pIC50 VIM-1 (converted)
READOUT: IC50 (nM)

Nc1ncc(-c2ccn(S(N)(=O)=O)c2C(=O)O)cn1 [compound 11]: 39.8
NS(=O)(=O)n1ccc(-c2ccc(F)cc2)c1C(=O)O [6a]: 126
NC(=O)c1ccc(-c2ccn(S(N)(=O)=O)c2C(=O)O)cc1 [compound 8]: 79.4

a. NS(=O)(=O)n1ccc(-c2ccc(N3CCOCC3)cc2)c1C(=O)O [compound 13]
b. Nc1nc2ccc(-c3ccn(S(N)(=O)=O)c3C(=O)O)cn2n1 [compound 14]
c. NS(=O)(=O)n1ccc(-c2cn[nH]c2)c1C(=O)O [compound 10]
d. N=C1NCC(c2ccn(S(N)(=O)=O)c2C(=O)O)CN1 (centres unmarked) [compound 12]
Falling order of IC50, please. Please list the labels in the order you were asked to rank them.
a, c, b, d
(a: 251 nM, c: 79.4 nM, b: 39.8 nM, d: 3.16 nM)

----------
target: NDM-1 (Klebsiella pneumoniae); construct: made in house; test: fluorogenic cephalosporin FC5 MBL inhibition assay, NDM-1; assay type: biochemical; details: FC5 5 μM, enzyme 20 pM, quadruplicate; read-out: pIC50 NDM-1 (converted)
READOUT: IC50 (nM)

Below, 3 compounds whose answers are already recorded.
Nc1ccc(-c2ccn(S(N)(=O)=O)c2C(=O)[O-])cn1.[Na+] [compound 9]: 12.6
NS(=O)(=O)n1ccc(-c2ccc(F)cc2)c1C(=O)[O-].[Na+] [6b]: 6.31
NS(=O)(=O)n1ccc(-c2cn[nH]c2)c1C(=O)O [compound 10]: 7.94

I. NS(=O)(=O)n1ccc(-c2ccc(F)cc2)c1C(=O)O [6a]
II. Nc1nc2ccc(-c3ccn(S(N)(=O)=O)c3C(=O)O)cn2n1 [compound 14]
Determine, for I and II , which has the greater value of IC50. Lab log: write the label of the selected item as the result.
II
(II: 12.6 nM, I: 7.94 nM)

----------
molecular target: VIM-2 (Escherichia coli, UniProt Q5U7L7); construct: made in house; experiment: fluorogenic cephalosporin FC5 MBL inhibition assay, VIM-2; assay type: biochemical; settings: FC5 5 μM, enzyme 500 pM, quadruplicate; read-out: pIC50 VIM-2 (converted)
READOUT: IC50 (nM)

Below, 4 compounds whose answers are already recorded.
Nc1ncc(-c2ccn(S(N)(=O)=O)c2C(=O)O)cn1: 50.1
NC(=O)c1ccc(-c2ccn(S(N)(=O)=O)c2C(=O)O)cc1: 158
NS(=O)(=O)n1ccc(-c2cn[nH]c2)c1C(=O)O: 15.8
Nc1ccc(-c2ccn(S(N)(=O)=O)c2C(=O)[O-])cn1.[Na+]: 200

1. NS(=O)(=O)n1ccc(-c2ccc(F)cc2)c1C(=O)[O-].[Na+]
2. NS(=O)(=O)n1ccc(-c2ccc(F)cc2)c1C(=O)O
Determine, for 1 and 2 , which has the greater value of IC50. Lab log: write the label of the selected item as the result.
1
